Measured values drawn from patent US8129371B2 for this set.

studyTarget: PI3K (Homo sapiens)
Construct: PI3 Kinase α IC50; other: PI3 Kinase α; other: PI3 Kinase α isoform, fluorescence polarization
Sequence (P42336 whole entry, canonical isoform): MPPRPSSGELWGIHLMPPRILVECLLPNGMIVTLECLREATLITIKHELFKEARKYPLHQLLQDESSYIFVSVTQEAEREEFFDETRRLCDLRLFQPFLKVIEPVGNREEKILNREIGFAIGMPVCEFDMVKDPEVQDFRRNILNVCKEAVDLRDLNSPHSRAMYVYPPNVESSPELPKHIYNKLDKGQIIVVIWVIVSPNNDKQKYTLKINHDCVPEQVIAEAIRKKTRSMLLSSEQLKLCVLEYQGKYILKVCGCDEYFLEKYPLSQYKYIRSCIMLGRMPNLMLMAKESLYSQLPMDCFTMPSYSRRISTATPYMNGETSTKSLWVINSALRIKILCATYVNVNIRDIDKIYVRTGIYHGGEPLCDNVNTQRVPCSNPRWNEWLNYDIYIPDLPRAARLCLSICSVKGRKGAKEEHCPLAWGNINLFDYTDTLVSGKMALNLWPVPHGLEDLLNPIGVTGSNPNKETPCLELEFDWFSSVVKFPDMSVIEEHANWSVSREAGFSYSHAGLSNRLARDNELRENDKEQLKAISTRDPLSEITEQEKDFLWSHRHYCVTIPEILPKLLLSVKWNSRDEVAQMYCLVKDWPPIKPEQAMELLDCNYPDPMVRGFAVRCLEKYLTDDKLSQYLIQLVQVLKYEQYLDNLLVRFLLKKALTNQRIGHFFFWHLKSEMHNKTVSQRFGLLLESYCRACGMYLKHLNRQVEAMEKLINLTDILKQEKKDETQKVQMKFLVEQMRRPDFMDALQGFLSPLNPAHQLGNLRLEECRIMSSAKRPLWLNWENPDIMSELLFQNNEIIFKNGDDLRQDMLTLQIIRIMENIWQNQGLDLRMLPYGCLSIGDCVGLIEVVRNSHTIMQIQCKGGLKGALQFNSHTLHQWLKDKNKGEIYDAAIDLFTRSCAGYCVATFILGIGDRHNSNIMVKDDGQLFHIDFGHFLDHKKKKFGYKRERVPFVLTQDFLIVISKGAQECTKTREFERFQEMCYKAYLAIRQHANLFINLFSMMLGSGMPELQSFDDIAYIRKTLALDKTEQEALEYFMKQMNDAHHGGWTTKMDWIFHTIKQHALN
assayProcedure: Fluorescence polarization assay for PI3K
Format: biochemical
conditionDetails: PI3 Kinase α isoform, fluorescence polarization; read-out: PI3 Kinase α IC50
resultType: pIC50
Numbers only, as −log10 of the molar value.

| molecule | observedValue |
| --- | --- |
| COC(=O)Nc1ccc(-c2nc(N3CC4CCC(C3)O4)c3cnn(C4CCC5(CC4)OCCO5)c3n2)cc1 | 5.13 |
| CNC(=O)Nc1ccc(-c2nc(N3CC4CCC(C3)O4)c3sc(CN4CCN(S(C)(=O)=O)CC4)cc3n2)cc1 | 7.34 |
| CS(=O)(=O)N1CCN(Cc2cc3nc(-c4ccc(NC(=O)NC5CC5)cc4)nc(N4CC5CCC(C4)O5)c3s2)CC1 | 6.75 |
| CN1CCN(C2CCC(n3ncc4c(N5CC6CCC(C5)O6)nc(-c5ccc(NC(=O)NC6CC6)cc5)nc43)CC2)CC1 (centres unmarked) | 5.53 |
| COC1CCC(n2ncc3c(N4CC5CCC(C4)O5)nc(-c4ccc(NC(=O)OCCO)cc4)nc32)CC1 (centres unmarked) | 5.42 |

The following molecules each have a reported value; give each one's pIC50.
1. O=CN1CC2CN(c3nc(-c4ccc(NC(=O)Nc5ccncc5)cc4)nc4c3cnn4CC(F)(F)F)CC(C1)O2
2. O=C(Nc1ccc(-c2nc(N3CC4CCC(C3)O4)c3cnn(C4CCC5(CCCO5)CC4)c3n2)cc1)OCCO (single isomer, unassigned)
3. CCn1nc(N2CCN(C)CC2)c2c(N3CC4CCC(C3)O4)nc(-c3ccc(NC(=O)NC)cc3)nc21

Output line:
1: 5.02; 2: 5.25; 3: 6.00

The following molecules each have a reported value; give each one's pIC50.
1. CNC(=O)Nc1ccc(-c2nc(N3C4CCC3COC4)c3cnn(C4CCN(C(=O)OC)CC4)c3n2)cc1
2. O=C(Nc1ccncc1)Nc1ccc(-c2nc(N3CC4CCC(C3)O4)c3sccc3n2)cc1
3. O=C(Nc1ccc(-c2nc(N3C[C@@H]4C[C@H]3CO4)c3cnn(CC(F)(F)F)c3n2)cc1)Nc1ccc(N2CCOCC2)nc1

Output line:
1: 5.37; 2: 7.10; 3: 4.99

The following molecules each have a reported value; give each one's pIC50.
1. COC(=O)N1CCC(n2ncc3c(N4C5CCC4COC5)nc(-c4ccc(NC(=O)NCCF)cc4)nc32)CC1
2. c1cncc(CN2CCC(n3ncc4c(N5CC6CCC(C5)O6)nc(-c5ccc6[nH]ccc6c5)nc43)CC2)c1

Output line:
1: 5.11; 2: 5.53
